The following compounds are shown together with reported GI50 values.
Tested on: SF-268
Assay comment: NCI tumour cell line growth inhibition, 48 h
Active and inactive are the calls of the source. Rule as the data show it: active = GI50 up to about 1.1 µM and inactive = higher. Residues, ends and D or L forms follow the SMILES beside them. *: point of attachment. Boc = CC(C)(C)OC(=O)*

// worked examples, GI50 included
O=c1c2cc(Br)cc(Br)c2nc(CCCl)n1CCO    47.1 µM (inactive)
O=S(=O)(SCc1ccccc1)C(c1ccccc1)c1ccccc1    57.1 µM (inactive)
COc1ccc(/C(=C/n2ccnc2)C(O)c2ccc(OC)c(OC)c2)cc1OC (stereo not given)    > 100 µM (inactive)
O=C1Nc2ccc(Cl)cc2C(=O)N2CCC[C@@H]12    > 100 µM (inactive)
S=C1CSc2c(cnc3ccccc23)N1    > 100 µM (inactive)

## Task Data request, read-out GI50, for COC(=O)C(Cc1c[nH]c2ccccc12)NC(=O)C(Cc1c[nH]c2ccccc12)NC(=O)C(Cc1c[nH]c2ccccc12)NC(=O)C(Cc1c[nH]c2ccccc12)NC(=O)C(Cc1c[nH]c2ccccc12)NC(=O)C(Cc1c[nH]c2ccccc12)NC(=O)OC(C)(C)C (stereo not given) (Boc-WWWWWW-OMe; configuration not given here)
## Result 50.4 µM (inactive)

## Task Another compound: "N=C(N)NS(=O)(=O)c1ccc(NC(=O)c2cccn3c(=O)c4ccccc4nc23)cc1"
## Result > 100 µM (inactive)
